B1: PhoQ; a variant is named by its letters at X, in order, P23837 (parent)
chain: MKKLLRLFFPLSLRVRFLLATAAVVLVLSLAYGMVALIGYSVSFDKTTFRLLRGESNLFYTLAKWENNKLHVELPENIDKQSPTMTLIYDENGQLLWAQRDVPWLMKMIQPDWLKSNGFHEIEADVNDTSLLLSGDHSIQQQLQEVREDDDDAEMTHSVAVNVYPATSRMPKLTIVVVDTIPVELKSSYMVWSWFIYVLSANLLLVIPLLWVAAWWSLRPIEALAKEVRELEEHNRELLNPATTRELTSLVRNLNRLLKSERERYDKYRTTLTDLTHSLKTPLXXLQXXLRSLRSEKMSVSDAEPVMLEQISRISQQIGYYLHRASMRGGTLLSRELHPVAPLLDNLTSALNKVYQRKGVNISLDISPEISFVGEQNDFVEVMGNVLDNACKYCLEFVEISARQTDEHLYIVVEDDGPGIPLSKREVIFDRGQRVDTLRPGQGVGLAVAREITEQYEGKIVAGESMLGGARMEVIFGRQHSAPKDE

Variants of: B1
test: enrichment ratio after two sorts for PhoP signalling (ratio (wild type AVST 3.29)); higher = more functional
assaySetup: with PhoP (E. coli)
The full ranking holds about 140,000 sequences; the median of “enrichment ratio after two sorts for PhoP signalling” is about 0, and the highest 2% start at about 11. This is one part of a sample in which the highest values are shown more often than they occur.
measuredQuantity: enrichment ratio

Lab note: WFML gave enrichment ratio of ≤ 0.25

The reported value for IAQH in terms of enrichment ratio is ≤ 0.25

Given item DCDI , the value recorded as its enrichment ratio is ≤ 0.25

Entry FGTG , enrichment ratio reported as ≤ 0.25

Sample QTFE ; enrichment ratio observed: ≤ 0.25

# variant SCCF ; its enrichment ratio = 13.7

The variant listed as SQCF shows enrichment ratio equal to 11.4

Recorded enrichment ratio (variant TNLL ): 4.87

According to the records, this variant LQSN displays enrichment ratio of ≤ 0.25

The value of enrichment ratio measured for the variant KCCF turned out to be ≤ 0.25

Data point: GRRA ; enrichment ratio = ≤ 0.25

The variant identified as MCCF registered its enrichment ratio at 4.87

Reported enrichment ratio of DTVY : ≤ 0.25

Record NECF , field enrichment ratio: ≤ 0.25

For this variant ( AINV ), measured enrichment ratio is ≤ 0.25

Form: variant = DPLL ; enrichment ratio = ≤ 0.25

// sample STCF , its enrichment ratio was 15.9

So for CTCF , the logged enrichment ratio turned out to be ≤ 0.25

GET /value?item= MCLL &field=enrichment ratio returns 8.32

Sure, the documented enrichment ratio for YTCF is 2.21

enrichment ratio reading for KHEV : ≤ 0.25

Value of measured enrichment ratio for the entry SRCF : ≤ 0.25
